Target: human GLUT1 (Homo sapiens)
Construct: expressed in transfected cells
Sequence (P11166 whole entry): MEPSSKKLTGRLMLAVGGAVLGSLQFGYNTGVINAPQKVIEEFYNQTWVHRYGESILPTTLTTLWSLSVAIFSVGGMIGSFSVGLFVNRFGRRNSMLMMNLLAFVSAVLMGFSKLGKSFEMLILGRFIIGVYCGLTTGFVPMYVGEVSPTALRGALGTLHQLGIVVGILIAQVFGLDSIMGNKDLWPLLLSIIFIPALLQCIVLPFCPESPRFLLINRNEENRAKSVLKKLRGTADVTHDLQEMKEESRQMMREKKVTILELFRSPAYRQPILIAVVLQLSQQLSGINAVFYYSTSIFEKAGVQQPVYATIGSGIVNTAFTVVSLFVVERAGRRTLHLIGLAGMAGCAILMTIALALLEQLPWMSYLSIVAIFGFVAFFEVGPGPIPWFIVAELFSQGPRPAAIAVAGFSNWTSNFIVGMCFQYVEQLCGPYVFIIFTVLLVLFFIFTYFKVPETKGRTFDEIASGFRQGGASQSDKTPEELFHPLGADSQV
Experiment: [3H]-deoxy-D-glucose uptake assay, GLUT1
Type: cell-based
Conditions: [3H]-deoxy-D-glucose uptake in HEK293 cells stably expressing human GLUT1
measured.endpoint: GLUT1 pIC50

>  <molecule>
CC(=O)N1CCN(Cc2c(-c3cccc([N+](=O)[O-])c3)nc3ccc(-c4ccccc4)cn23)CC1

>  <GLUT1 pIC50>
++ (pIC50 5.00-5.99)

$$$$
>  <molecule>
O=C1CN(Cc2c(-c3ccc(Cl)cc3)nc3ccc(-c4ccccc4)cn23)CCN1

>  <GLUT1 pIC50>
++ (pIC50 5.00-5.99)

$$$$
>  <molecule>
Fc1cccc(-c2ccc3nc(-c4ccc(Cl)cc4)c(CN4CCOCC4)n3c2)c1

>  <GLUT1 pIC50>
+ (pIC50 4.00-4.99)

$$$$
>  <molecule>
CN(c1ccc2nc(-c3ccc(Cl)cc3)c(CN3CCN(C(=O)C4COC4)CC3)n2c1)S(C)(=O)=O

>  <GLUT1 pIC50>
+++ (pIC50 ≧ 6.00)

$$$$
>  <molecule>
Clc1ccc(-c2nc3ccc(N4CCOCC4)cn3c2CN2CCOCC2)cc1

>  <GLUT1 pIC50>
++ (pIC50 5.00-5.99)

$$$$
>  <molecule>
Clc1cccc(-c2nc3ccc(-c4ccccc4)cn3c2CN2CCOCC2)c1

>  <GLUT1 pIC50>
++ (pIC50 5.00-5.99)

$$$$
>  <molecule>
COc1ccc(-c2ccc3nc(-c4ccc(Cl)cc4)c(CN4CCOCC4)n3c2)cc1

>  <GLUT1 pIC50>
+ (pIC50 4.00-4.99)

$$$$
>  <molecule>
O=C1CN(Cc2c(-c3ccc(Cl)cc3Cl)nc3cnc(C4CC4)cn23)CCN1

>  <GLUT1 pIC50>
+++ (pIC50 ≧ 6.00)

$$$$
>  <molecule>
CC(=O)N1CCN(Cc2c(-c3ccc(Cl)cc3)nc3ccc(N(C)S(C)(=O)=O)cn23)CC1

>  <GLUT1 pIC50>
+++ (pIC50 ≧ 6.00)

$$$$
>  <molecule>
CCS(=O)(=O)N1CCN(Cc2c(-c3cccc([N+](=O)[O-])c3)nc3ccc(-c4ccccc4)cn23)CC1

>  <GLUT1 pIC50>
++ (pIC50 5.00-5.99)

$$$$

Q) # input compound: O=C(c1ccnnc1)N1CCN(Cc2c(-c3ccc(Cl)cc3)nc3cnc(C4CC4)cn23)CC1 ; wanted: its GLUT1 pIC50
A) +++ (pIC50 ≧ 6.00)

Q) Please give the measured GLUT1 pIC50 for this compound: CC(C)(C)NC(=O)N1CCN(Cc2c(-c3ccc(Cl)cc3)nc3ccc(-c4ccccc4)cn23)CC1
A) ++ (pIC50 5.00-5.99)

Q) Return reported GLUT1 pIC50; argument: CC(=O)N1CCN(Cc2c(-c3ccc(Cl)cc3)nc3ccc(N(C(F)F)S(C)(=O)=O)cn23)CC1
A) +++ (pIC50 ≧ 6.00)
